Entry source: PubChem BioAssay AID2567

- targetOrTestSystem: Neuropeptide S receptor (Homo sapiens)
- experiment: Confirmation Concentration-Response Assay for Antagonists of the Neuropeptide S Receptor: Calcium Signal Transduction, SAR for Probe
- conditionDetails: CHO-NPSR cells, NPS-induced calcium fluorescence, FDSS; series mostly up to 19.3 µM
Results filed as inconclusive are left out. Calls of active or inactive are those of the source. Calls come from the whole dose curve; as a rule, active = well fitted antagonist curve with a large enough effect in the main read-out, with a control signal flat; inconclusive = small, poorly fitted or top-dose-only effect; inactive = no such curve, though single readings can be large or run the other way.
Assign a class; possible classes are True (active), False (inactive)

Study these solved cases before continuing.
# compound, classification
records = [
    ("COc1ccc(C2c3c(N)nc(CCCc4ccccc4)nc3Oc3ccc4ccccc4c32)cc1OC (centres undefined)", "False"),
    ("COc1ccc(C2c3c(n(CCc4ccccc4)cnc3=N)Oc3ccc4ccccc4c32)cc1OC (centres undefined)", "False"),
    ("CC(C)Cc1nc(N2CCN(C(=O)c3ccccc3)CC2)c(C#N)c2c1CCC2", "False"),
    ("O=P(c1ccccc1)(c1ccccc1)c1cnc2ccccn12", "False"),
    ("CCC(C)(CCN1CCOCC1)N(Cc1cc2ccccc2n(C)c1=O)C(=O)C1CCCCC1 (centres undefined)", "True"),
    ("COc1ccc(C2c3ccccc3Oc3ncn(CCN4CCOCC4)c(=N)c32)cc1OC (centres undefined)", "True"),
    ("COc1cccc(C2c3c(ncn(-c4cccc(F)c4)c3=N)Oc3ccc4ccccc4c32)c1 (centres undefined)", "True"),
    ("COc1ccc(C2C3=C(N=CN(CCN4CCOCC4)C3N)Oc3ccccc32)cc1OC (centres undefined)", "False"),
]

Query: For this compound, state the assay outcome: `Cc1ccc(NC(=S)NNC(C)(C)C)cc1`
Reply: False

----------
- targetOrTestSystem: Neuropeptide S receptor (Homo sapiens)
- experiment: Confirmation Concentration-Response Assay for Antagonists of the Neuropeptide S Receptor: Calcium Signal Transduction, SAR for Probe
- conditionDetails: CHO-NPSR cells, NPS-induced calcium fluorescence, FDSS; series mostly up to 19.3 µM
- Source text: NIH Chemical Genomics Center [NCGC] NIH Molecular Libraries Probe Production centers Network [MLPCN] MLPCN Grant: X01-DA026210-01 Assay Submitter (PI): Heilig, Markus Alexander NCGC Assay Overview: Neuropeptide S receptor (NPSR), previously known as GPR154, is a recently de-orphanized G protein coupled receptor. […] This change in intracellular calcium can be detected using a calcium indicator dye on a calcium imaging plate reader system (FDSS). […]
Results filed as inconclusive are left out. The source made the active and inactive calls. Calls come from the whole dose curve; as a rule, active = well fitted antagonist curve with a large enough effect in the main read-out, with a control signal flat; inconclusive = small, poorly fitted or top-dose-only effect; inactive = no such curve, though single readings can be large or run the other way.
testReadout: outcome

# compound, targetOrTestSystem, readoutValue
records = [
    ("C/C(=N\\NC(=S)NC1CCCCC1)c1c(F)cccc1F", "Neuropeptide S receptor (Homo sapiens)", "inactive"),
    ("COc1ccc(C(=O)N(Cc2ccco2)Cc2cccs2)c(O)c1", "Neuropeptide S receptor (Homo sapiens)", "inactive"),
    ("COc1ccc(C2c3c(N)nc(CCc4ccccc4)nc3Oc3ccc4ccccc4c32)cc1OC (centres undefined)", "Neuropeptide S receptor (Homo sapiens)", "inactive"),
    ("COc1ccc(C2c3c(nc(CCCc4ccccc4)[nH]c3=O)Oc3ccc4ccccc4c32)cc1OC (centres undefined)", "Neuropeptide S receptor (Homo sapiens)", "inactive"),
    ("Cn1nc(-c2ccc(Cl)cc2)nc2c(=O)n(C)c(=O)nc1-2", "Neuropeptide S receptor (Homo sapiens)", "inactive"),
]

Then there is this compound:
So, `Cc1cc2nc3ccc(=[N+](C)C)cc-3sc2cc1N` ? Its outcome was inactive
